- target.of.assay: HDAC6 enzyme (Homo sapiens)
- Construct: transducing full length HDAC6 gene into Sf-9 insect cells; GST; purchased SignalChem; host or cells: Sf-9 insect cells
- Sequence (Q9UBN7 whole entry): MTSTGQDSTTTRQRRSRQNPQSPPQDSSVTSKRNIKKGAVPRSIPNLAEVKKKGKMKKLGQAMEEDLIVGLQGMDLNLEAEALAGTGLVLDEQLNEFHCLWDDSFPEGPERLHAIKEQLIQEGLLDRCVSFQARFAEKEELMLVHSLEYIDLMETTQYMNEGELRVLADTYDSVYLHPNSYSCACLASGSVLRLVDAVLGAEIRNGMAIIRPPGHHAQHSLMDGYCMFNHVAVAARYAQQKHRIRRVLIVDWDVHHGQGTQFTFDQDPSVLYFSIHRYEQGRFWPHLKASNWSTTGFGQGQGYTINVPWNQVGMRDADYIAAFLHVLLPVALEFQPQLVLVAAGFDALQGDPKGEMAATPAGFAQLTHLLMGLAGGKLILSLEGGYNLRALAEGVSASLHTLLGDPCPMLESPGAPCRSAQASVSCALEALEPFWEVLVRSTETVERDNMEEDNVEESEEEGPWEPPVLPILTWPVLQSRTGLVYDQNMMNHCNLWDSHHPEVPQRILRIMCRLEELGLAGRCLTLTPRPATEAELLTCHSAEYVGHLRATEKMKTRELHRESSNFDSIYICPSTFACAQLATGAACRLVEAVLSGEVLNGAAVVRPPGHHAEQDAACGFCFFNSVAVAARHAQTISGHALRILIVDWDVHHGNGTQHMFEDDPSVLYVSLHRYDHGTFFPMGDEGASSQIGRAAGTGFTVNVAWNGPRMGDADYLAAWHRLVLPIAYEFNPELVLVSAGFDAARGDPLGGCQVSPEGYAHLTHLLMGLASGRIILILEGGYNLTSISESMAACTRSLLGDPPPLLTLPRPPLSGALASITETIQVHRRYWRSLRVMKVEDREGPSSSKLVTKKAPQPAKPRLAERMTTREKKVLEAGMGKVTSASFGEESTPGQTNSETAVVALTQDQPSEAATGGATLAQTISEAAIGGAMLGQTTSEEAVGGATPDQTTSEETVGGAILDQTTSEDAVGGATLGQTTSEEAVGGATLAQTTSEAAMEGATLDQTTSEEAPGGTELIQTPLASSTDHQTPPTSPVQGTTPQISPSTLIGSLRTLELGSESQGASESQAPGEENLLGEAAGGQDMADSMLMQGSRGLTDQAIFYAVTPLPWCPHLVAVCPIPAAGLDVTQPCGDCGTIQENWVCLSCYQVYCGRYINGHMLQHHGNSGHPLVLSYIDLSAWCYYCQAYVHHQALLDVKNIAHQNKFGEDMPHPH
- method.notes: HDAC6 enzyme inhibitory activity (HDAC-Glo I/II Assay kit)
- Assay type: biochemical
- experimental.conditions: 10 μM; wells without enzyme = 100% inhibition; read-out: HDAC6 inhibitory rate (%) (10 μM)
endpoint.label: inhibition at 10 µM (%)
Your answer should be a plain number; it is taken to be in %.

Form: item "Cn1nc(C(F)(F)F)cc1-c1cc(F)ccc1N1Cc2ccc(-c3nnc(C(F)F)o3)cc2C1=O" ; test system HDAC6 enzyme (Homo sapiens); inhibition at 10 µM: 101

Form: item "O=C1c2cc(-c3nnc(C(F)F)o3)ccc2CN1[C@@H]1CCCC[C@H]1n1nnc2ccccc21" ; test system HDAC6 enzyme (Homo sapiens); inhibition at 10 µM: 100

Form: item "O=C1c2cc(-c3nnc(C(F)F)o3)ccc2CN1[C@@H]1CCNC[C@@H]1c1ccccc1" ; test system HDAC6 enzyme (Homo sapiens); inhibition at 10 µM: 100

Form: item "O=C1c2cc(-c3nnc(C(F)F)o3)cnc2CN1Cc1cccc(OC(F)(F)F)c1" ; test system HDAC6 enzyme (Homo sapiens); inhibition at 10 µM: 94

Form: item "O=C1CCCCN1[C@@H]1CCCC[C@H]1N1Cc2ccc(-c3nnc(C(F)F)o3)cc2C1=O" ; test system HDAC6 enzyme (Homo sapiens); inhibition at 10 µM: 100

Form: item "O=C(N[C@@H]1CCCC[C@H]1N1Cc2ccc(-c3nnc(C(F)F)o3)cc2C1=O)[C@@H]1CCCO1" ; test system HDAC6 enzyme (Homo sapiens); inhibition at 10 µM: 100

Form: item "O=C1c2cc(-c3nnc(C(F)F)o3)ccc2CN1c1ccnn1-c1cccc(F)c1" ; test system HDAC6 enzyme (Homo sapiens); inhibition at 10 µM: 99

Form: item "O=C1c2cc(-c3nnc(C(F)F)o3)ccc2CN1[C@@H]1CCOC[C@@H]1NCC(F)(F)C(F)(F)F" ; test system HDAC6 enzyme (Homo sapiens); inhibition at 10 µM: 101

Form: item "O=C1c2cc(-c3nnc(C(F)F)o3)ccc2CN1[C@@H]1CCCC[C@H]1NS(=O)(=O)CC(F)(F)F" ; test system HDAC6 enzyme (Homo sapiens); inhibition at 10 µM: 101

Form: item O=C(C(F)F)N1CCC[C@H](N2Cc3ccc(-c4nnc(C(F)F)o4)cc3C2=O)[C@H]1c1ccc(F)cc1 (racemic) ; test system HDAC6 enzyme (Homo sapiens); inhibition at 10 µM: 100

Form: item "CCC(=O)N[C@@H]1CCCC[C@H]1N1Cc2c(F)cc(-c3nnc(C(F)F)o3)cc2C1=O" ; test system HDAC6 enzyme (Homo sapiens); inhibition at 10 µM: 99

Form: item "COc1ccc(N2Cc3ccc(-c4nnc(C(F)F)o4)cc3C2=O)c(-c2ccccc2)c1" ; test system HDAC6 enzyme (Homo sapiens); inhibition at 10 µM: 100

Form: item "O=C1c2cc(-c3nnc(C(F)F)o3)cc(F)c2CN1c1ccc(F)cc1-c1cccc(F)c1" ; test system HDAC6 enzyme (Homo sapiens); inhibition at 10 µM: 95

Form: item O=C1c2cc(-c3nnc(C(F)F)o3)ccc2CN1N1CCCCC1c1ccccc1 (stereo not drawn) ; test system HDAC6 enzyme (Homo sapiens); inhibition at 10 µM: 98

Form: item "O=C1c2cc(-c3nnc(C(F)F)o3)cnc2CN1[C@@H]1CCCC[C@H]1NC(=O)C1(c2ccc(F)cc2)CC1" ; test system HDAC6 enzyme (Homo sapiens); inhibition at 10 µM: 101

Form: item "O=C1c2cc(-c3nnc(C(F)F)o3)ccc2CN1Cc1ncc(F)cc1F" ; test system HDAC6 enzyme (Homo sapiens); inhibition at 10 µM: 93

Form: item "Cn1cc(-c2cc(Cl)ccc2N2Cc3ccc(-c4nnc(C(F)F)o4)cc3C2=O)cn1" ; test system HDAC6 enzyme (Homo sapiens); inhibition at 10 µM: 99

Form: item "COc1ccc(-c2ccccc2N2Cc3ccc(-c4nnc(C(F)F)o4)cc3C2=O)cc1" ; test system HDAC6 enzyme (Homo sapiens); inhibition at 10 µM: 101

Form: item "N#Cc1cccc(-c2ccccc2N2Cc3c(F)cc(-c4nnc(C(F)F)o4)cc3C2=O)c1" ; test system HDAC6 enzyme (Homo sapiens); inhibition at 10 µM: 101

Form: item "COC(=O)N1CC[C@@H](N2Cc3ccc(-c4nnc(C(F)F)o4)cc3C2=O)[C@H](c2ccc(F)cc2)C1" ; test system HDAC6 enzyme (Homo sapiens); inhibition at 10 µM: 100

Form: item "Cc1cc(-c2ccccc2N2Cc3ccc(-c4nnc(C(F)F)o4)cc3C2=O)n(C)n1" ; test system HDAC6 enzyme (Homo sapiens); inhibition at 10 µM: 100

Form: item "O=C1c2cc(-c3nnc(C(F)F)o3)ccc2CN1[C@@H]1CCCC[C@H]1NC(=O)C12CC(C(F)(F)F)(C1)C2" ; test system HDAC6 enzyme (Homo sapiens); inhibition at 10 µM: 101

Form: item "Cn1nc(C(F)(F)F)cc1-c1cc(F)ccc1N1Cc2ncc(-c3nnc(C(F)F)o3)cc2C1=O" ; test system HDAC6 enzyme (Homo sapiens); inhibition at 10 µM: 100

Form: item "O=C(N[C@@H]1CCCC[C@H]1N1Cc2c(F)cc(-c3nnc(C(F)F)o3)cc2C1=O)[C@@H]1CC1(F)F" ; test system HDAC6 enzyme (Homo sapiens); inhibition at 10 µM: 100

Form: item "O=C1c2cc(-c3nnc(C(F)F)o3)cnc2CN1Cc1cncc(C(F)(F)F)c1" ; test system HDAC6 enzyme (Homo sapiens); inhibition at 10 µM: 99

Form: item "Cn1cc(C(=O)N2CCC(F)(F)CC2)c(N2Cc3ccc(-c4nnc(C(F)F)o4)cc3C2=O)n1" ; test system HDAC6 enzyme (Homo sapiens); inhibition at 10 µM: 99

Form: item "O=C1c2cc(-c3nnc(C(F)F)o3)cc(F)c2CN1[C@@H]1COCC[C@H]1NC(=O)C1(C(F)(F)F)CCC1" ; test system HDAC6 enzyme (Homo sapiens); inhibition at 10 µM: 101

Form: item Cn1cc(C2=CCC(NC(=O)OC(C)(C)C)CC2)c(N2Cc3ccc(-c4nnc(C(F)F)o4)cc3C2=O)n1 (stereo not drawn) ; test system HDAC6 enzyme (Homo sapiens); inhibition at 10 µM: 99

Form: item "O=C1c2cc(-c3nnc(C(F)F)o3)cc(F)c2CN1C[C@@H]1CCCN1S(=O)(=O)CC(F)(F)F" ; test system HDAC6 enzyme (Homo sapiens); inhibition at 10 µM: 99

Form: item "O=C1c2cc(-c3nnc(C(F)F)o3)cc(F)c2CN1[C@@H]1CCOC[C@@H]1NCC(F)(F)F" ; test system HDAC6 enzyme (Homo sapiens); inhibition at 10 µM: 99
